system: Zika virus NS2B-NS3 protease (linked); test: Optimization screen NINDS Rhodamine qHTS for Zika virus inhibitors: Linked NS2B-NS3 protease assay; details: fluorogenic rhodamine substrate; series mostly up to 105 µM
Inconclusive results are not listed. Active and inactive are the calls of the source. Calls come from the whole dose curve; as a rule, active = well fitted inhibition curve with a large enough effect; inconclusive = small, poorly fitted or top-dose-only effect; inactive = no such curve, though single readings can be large or run the other way. *1 amine or outer side, *2 acyl side, *3 side chain or, on linkers, in order; H or OH if unused. Where a SMILES comes first, the peptide text is derived from it. Bridges are numbered along the chain shown (N, C = ends). Roman numbers before positions name the chains, in order. [ ]: non-standard residue; d: D form. Actinocin(9to1) = Cc1c2oc3c(C)ccc(C(=O)[*:1])c3nc-2c(C(=O)[*:2])c(N)c1=O; NMeV = CN[C@H](C(=O)O)C(C)C; Sar = CNCC(=O)O
Outcome codes: T (active), F (inactive)

# molecule, category
data = [
    ("Nc1ncnc2c1ncn2[C@@H]1O[C@H](C[C@@H](N)CC[C@H](N)C(=O)O)[C@@H](O)[C@H]1O", "F"),
    ("CCC(CC)(NC(=O)C(C)C)C(=O)N[C@@H](CCCN=C(N)N)C(=O)NC1(C(=O)NC(c2ccc(F)cc2)c2ccc(F)cc2)CCCC1", "F"),
    ("CC[C@@H](C)[C@H]1O[C@]2(CC[C@H]1C)C[C@@H]1C[C@@H](CC=C(C)[C@@H](O[C@H]3C[C@H](OC)[C@@H](O[C@H]4C[C@H](OC)[C@@H](O)[C@H](C)O4)[C@H](C)O3)[C@@H](C)C=CC=C3CO[C@@H]4[C@H](O)C(C)=C[C@@H](C(=O)O1)[C@]34O)O2", "T"),
    ("Oc1cc2ccccc2c2ccccc12", "T"),
    ("CC[C@@H]1O[C@]2(C=C[C@@H]1C)C[C@H]1C[C@H](CC=C(C)[C@@H](O[C@@H]3C[C@H](OC)[C@H](O[C@@H]4C[C@H](OC)[C@H](O)[C@H](C)O4)[C@H](C)O3)[C@@H](C)C=CC=C3CO[C@@H]4[C@@H](O)C(C)=C[C@@H](C(=O)O1)[C@]34O)O2", "F"),
    ("COc1c2occc2cc2ccc(=O)oc12", "F"),
    ("Cc1c2oc3c(C)ccc(C(=O)N[C@@H]4C(=O)N[C@H](C(C)C)C(=O)N5CCC[C@H]5C(=O)N(C)CC(=O)N(C)[C@@H](C(C)C)C(=O)O[C@@H]4C)c3nc-2c(C(=O)N[C@@H]2C(=O)N[C@H](C(C)C)C(=O)N3CCC[C@H]3C(=O)N(C)CC(=O)N(C)[C@@H](C(C)C)C(=O)O[C@@H]2C)c(N)c1=O (I: T[dV]P[Sar][NMeV] / II: T[dV]P[Sar][NMeV]; ester I:1-I:C, II:1-II:C; linker I:N-II:N via Actinocin(9to1))", "F"),
    ("Cn1cnc([N+](=O)[O-])c1Sc1ncnc2nc[nH]c12", "F"),
    ("O=c1cc(-c2ccccc2)oc2cc(O)c(O)c(O)c12", "T"),
]
